As shown below, each of these binders has a reported log10 Kd value.
- target-under-test: T1, human LAP-TGFB1 Fc fusion (human)
- T1 construct: also called human LAP-TGFβ1-Fc; human LAP-TGFβ-Fc isoform 1
- T1 sequence (chain, as listed by the source limits assumed): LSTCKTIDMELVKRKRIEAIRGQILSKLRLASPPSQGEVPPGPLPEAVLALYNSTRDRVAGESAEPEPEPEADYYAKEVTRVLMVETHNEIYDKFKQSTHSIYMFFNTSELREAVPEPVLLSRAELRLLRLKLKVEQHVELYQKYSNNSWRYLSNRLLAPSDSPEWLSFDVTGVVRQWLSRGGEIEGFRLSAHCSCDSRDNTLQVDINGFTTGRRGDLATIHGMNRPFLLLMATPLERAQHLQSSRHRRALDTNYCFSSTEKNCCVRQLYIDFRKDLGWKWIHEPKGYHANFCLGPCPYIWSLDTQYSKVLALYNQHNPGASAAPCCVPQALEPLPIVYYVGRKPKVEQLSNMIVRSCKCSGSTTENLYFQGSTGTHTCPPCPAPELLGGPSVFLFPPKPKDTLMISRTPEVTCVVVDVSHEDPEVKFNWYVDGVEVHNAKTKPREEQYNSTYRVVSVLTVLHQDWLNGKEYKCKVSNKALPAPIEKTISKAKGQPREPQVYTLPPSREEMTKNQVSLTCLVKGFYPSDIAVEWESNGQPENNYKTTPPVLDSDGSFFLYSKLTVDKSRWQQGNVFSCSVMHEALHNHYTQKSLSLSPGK
- protocol-text: SPR pH 6.0, antigen-Fc captured, Fab analyte
readout-kind: log10 Kd (log10 of the value in nM)

binder: 55BLH (Fab, V domains shown, also called 07BLM Fab) VH: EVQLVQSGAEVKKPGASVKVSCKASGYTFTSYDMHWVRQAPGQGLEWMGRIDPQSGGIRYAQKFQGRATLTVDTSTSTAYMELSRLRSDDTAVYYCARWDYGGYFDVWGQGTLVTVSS VL: DIQMTQSPSSLSASVGDRVTITCRASQDIYSYLNWYQQKPGKAVKLLIYYTSNLETGVPSRFSGSGSGTDYTLTISSLQPEDFATYFCQQGDTLPWTFGQGTKLEIK
log10 Kd: -0.98

binder: 62BLH (Fab, V domains shown, also called 14BLM Fab) VH: EVQLVQSGAEVKKPGASVKVSCKASGYTFTSYDTHWVRQAPGQGLEWMGRIDPQSGGIKYAQKFQGRATLTVDTSTSTAYMELSRLRSDDTAVYYCARWDYGGYFDVWGQGTLVTVSS VL: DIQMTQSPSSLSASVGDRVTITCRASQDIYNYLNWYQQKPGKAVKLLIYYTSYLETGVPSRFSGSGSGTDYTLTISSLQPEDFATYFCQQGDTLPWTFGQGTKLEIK
log10 Kd: -0.54

binder: 67BLH (Fab, V domains shown, also called 19BLM Fab) VH: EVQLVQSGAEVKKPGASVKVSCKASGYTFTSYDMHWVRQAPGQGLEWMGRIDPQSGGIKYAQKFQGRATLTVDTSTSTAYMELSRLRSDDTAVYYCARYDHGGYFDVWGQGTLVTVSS VL: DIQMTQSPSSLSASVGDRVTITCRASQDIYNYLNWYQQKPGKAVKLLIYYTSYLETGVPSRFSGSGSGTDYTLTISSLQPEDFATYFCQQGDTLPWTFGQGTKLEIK
log10 Kd: 0.20

binder: 59BLH (Fab, V domains shown, also called 11BLM Fab) VH: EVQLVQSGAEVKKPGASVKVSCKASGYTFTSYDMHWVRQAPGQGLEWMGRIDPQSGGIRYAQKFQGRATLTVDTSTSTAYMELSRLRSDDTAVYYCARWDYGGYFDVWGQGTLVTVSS VL: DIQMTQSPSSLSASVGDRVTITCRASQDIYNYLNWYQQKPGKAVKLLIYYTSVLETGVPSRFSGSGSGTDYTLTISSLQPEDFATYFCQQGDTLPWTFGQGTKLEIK
log10 Kd: -1.31

binder: 58BLH (Fab, V domains shown, also called 10BLM Fab) VH: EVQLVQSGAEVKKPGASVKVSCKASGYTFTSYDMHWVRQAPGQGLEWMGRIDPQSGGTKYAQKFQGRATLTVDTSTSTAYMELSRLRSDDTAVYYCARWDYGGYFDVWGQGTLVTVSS VL: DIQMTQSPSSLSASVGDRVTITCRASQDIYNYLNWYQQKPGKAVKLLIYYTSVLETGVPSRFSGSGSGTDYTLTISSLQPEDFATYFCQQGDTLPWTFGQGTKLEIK
log10 Kd: -1.07

Data origin, for the record: patent US20230272056A1
